Data origin, for the record: patent US20140142113A1

Target: hA2B adenosine receptor (Homo sapiens)
Sequence (P29275 1-332): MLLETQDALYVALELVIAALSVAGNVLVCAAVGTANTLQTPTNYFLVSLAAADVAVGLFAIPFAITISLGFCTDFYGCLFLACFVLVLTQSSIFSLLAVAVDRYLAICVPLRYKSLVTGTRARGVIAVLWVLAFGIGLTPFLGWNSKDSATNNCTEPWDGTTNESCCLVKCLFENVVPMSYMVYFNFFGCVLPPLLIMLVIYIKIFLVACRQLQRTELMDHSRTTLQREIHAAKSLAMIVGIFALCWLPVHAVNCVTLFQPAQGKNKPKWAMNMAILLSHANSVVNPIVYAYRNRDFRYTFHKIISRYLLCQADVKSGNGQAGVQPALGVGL
observable: IC50 (nM)
Record the value in nM, omitting the unit from your answer.

So for CCCn1c(=O)[nH]c2nc(-c3ccc(S(=O)(=O)N4CCN(Cc5ccc(OC)cc5)CC4)cc3)[nH]c2c1=O , the logged IC50 turned out to be 16

So for CCCn1c(=O)[nH]c2nc(-c3ccc(S(=O)(=O)N4CCN(Cc5ccc6c(c5)OCO6)CC4)cc3)[nH]c2c1=O , the logged IC50 turned out to be 24

So for CCn1c(=O)[nH]c2nc(-c3ccc(S(=O)(=O)N4CCN(Cc5ccc(OC)cc5)CC4)cc3)[nH]c2c1=O , the logged IC50 turned out to be 5

So for CCCn1c(=O)[nH]c2nc(-c3ccc(S(=O)(=O)N4CCN(Cc5cccc(C(F)(F)F)c5)CC4)cc3)[nH]c2c1=O , the logged IC50 turned out to be 4
